tested on: Candida albicans ATCC 10231; test: microbe, parasite or virus in culture; type: cell-based; conditions: ATCC 10231, pH 7.4
Non-standard residues stand in square brackets, D forms with d. Residues, ends and D or L forms follow the SMILES beside them. *: point of attachment. Palmitoyl = CCCCCCCCCCCCCCCC(=O)*; Myristoyl = CCCCCCCCCCCCCC(=O)*; Undecanoyl = CCCCCCCCCCC(=O)*; Lauroyl = CCCCCCCCCCCC(=O)*
Entries and their measured Minimal Inhibitory Concentration, C. albicans ATCC 10231 follow.

So what's the measured Minimal Inhibitory Concentration, C. albicans ATCC 10231 for this one? CCCCCCCCCCCCCCCC(=O)N[C@H](CCCCN)C(=O)NCC(=O)NCC(=O)NCC(=O)N[C@H](CCCCN)C(=O)NCC(=O)NCC(=O)NCC(=O)N[C@H](CCCCN)C(=O)NCC(=O)NCC(=O)N[C@H](CCCCN)C(N)=O [lipopeptide 2] (Palmitoyl-[dK]GGG[dK]GGG[dK]GG[dK]-NH2)
3.125 µM

Item: CCCCCCCCCCC(=O)N[C@@H](CCCCN)C(=O)N[C@@H](CC(C)C)C(=O)N[C@H](CC(C)C)C(=O)N[C@H](CC(C)C)C(=O)N[C@@H](CCCCN)C(=O)N[C@@H](CC(C)C)C(=O)N[C@@H](CC(C)C)C(=O)N[C@H](CC(C)C)C(=O)N[C@@H](CCCCN)C(=O)N[C@H](CC(C)C)C(=O)N[C@@H](CC(C)C)C(=O)N[C@@H](CCCCN)C(N)=O [lipopeptide 10] (Undecanoyl-KL[dL][dL]KLL[dL]K[dL]LK-NH2)
3.125 µM

Check CCCCCCCCCCCC(=O)N[C@H](CC(C)C)C(=O)N[C@@H](CCCCN)C(=O)N[C@@H](CCCCN)C(=O)N[C@H](CC(C)C)C(=O)N[C@H](CC(C)C)C(=O)N[C@@H](CCCCN)C(=O)N[C@@H](CCCCN)C(=O)N[C@H](CC(C)C)C(=O)N[C@H](CC(C)C)C(=O)N[C@@H](CCCCN)C(=O)N[C@@H](CCCCN)C(=O)N[C@H](CC(C)C)C(N)=O [lipopeptide 22] (Lauroyl-[dL]KK[dL][dL]KK[dL][dL]KK[dL]-NH2) too.
12.5 µM

Others:
What Minimal Inhibitory Concentration, C. albicans ATCC 10231 value was documented for this molecule, CCCCCCCCCCCCCCCC(=O)N[C@@H](CCCCN)C(=O)NCC(=O)NCC(=O)NCC(=O)N[C@@H](CCCCN)C(=O)NCC(=O)NCC(=O)NCC(=O)N[C@@H](CCCCN)C(=O)NCC(=O)NCC(=O)N[C@@H](CCCCN)C(N)=O [lipopeptide 4] (Palmitoyl-KGGGKGGGKGGK-NH2) ?
3.125 µM

Quick one: CCCCCCCCCCCCCC(=O)N[C@@H](CCCCN)C(=O)NCC(=O)NCC(=O)NCC(=O)N[C@@H](CCCCN)C(=O)NCC(=O)NCC(=O)NCC(=O)N[C@@H](CCCCN)C(=O)NCC(=O)NCC(=O)N[C@@H](CCCCN)C(N)=O [lipopeptide 3] (Myristoyl-KGGGKGGGKGGK-NH2)
3.125 µM

Field entry: CCCCCCCCCCCCCCCC(=O)N[C@H](CC(C)C)C(=O)N[C@@H](CCCCN)C(=O)N[C@@H](CCCCN)C(=O)N[C@H](CC(C)C)C(=O)N[C@H](CC(C)C)C(=O)N[C@@H](CCCCN)C(=O)N[C@@H](CCCCN)C(=O)N[C@H](CC(C)C)C(=O)N[C@H](CC(C)C)C(=O)N[C@@H](CCCCN)C(=O)N[C@@H](CCCCN)C(=O)N[C@H](CC(C)C)C(N)=O [lipopeptide 24] (Palmitoyl-[dL]KK[dL][dL]KK[dL][dL]KK[dL]-NH2)
1.56 µM

---

assay: in vitro; assay type: in vitro ADME, bovine; conditions: isolated enzyme trypsin, pH 7.3
Positions of bridges follow the written chain, without caps; N, C: chain ends. Non-standard residues stand in square brackets, D forms with d. Residues, ends and D or L forms follow the SMILES beside them. *: point of attachment. Myristoyl = CCCCCCCCCCCCCC(=O)*
measured-endpoint: metabolised at 0.5 h, 140 μM (%)
I only need the number, in %, no unit after it.

// returns reported metabolised at 0.5 h, 140 μM for input CCCCCCCCCCCCCC(=O)N[C@H]1CSSC[C@@H](C(N)=O)NC(=O)[C@@H](CCCCN)NC(=O)CNC(=O)CNC(=O)[C@@H](CCCCN)NC(=O)CNC(=O)CNC(=O)CNC(=O)[C@@H](CCCCN)NC(=O)CNC(=O)CNC(=O)CNC(=O)[C@@H](CCCCN)NC1=O [lipopeptide 16] (Myristoyl-C[dK]GGG[dK]GGG[dK]GG[dK]C-NH2; disulfide 1-14)
0

# evaluate next
Recorded metabolised at 0.5 h, 140 μM for CCCCCCCCCCCCCC(=O)N[C@H]1CSSC[C@@H](C(N)=O)NC(=O)[C@H](CCCCN)NC(=O)CNC(=O)CNC(=O)[C@H](CCCCN)NC(=O)CNC(=O)CNC(=O)CNC(=O)[C@H](CCCCN)NC(=O)CNC(=O)CNC(=O)CNC(=O)[C@H](CCCCN)NC1=O [lipopeptide 19] (Myristoyl-CKGGGKGGGKGGKC-NH2; disulfide 1-14) , please?
100

---

system: Candida albicans ATCC 10231; experiment: microbe, parasite or virus in culture; format: cell-based; settings: ATCC 10231, pH 7.4; read-out: Minimal inhibitory concentrations, C. Albicans With serum
Non-standard residues stand in square brackets, D forms with d. Residues, ends and D or L forms follow the SMILES beside them. *: point of attachment. Lauroyl = CCCCCCCCCCCC(=O)*
Collected MIC values appear next to each entry.

Take a look at these entries with their results.
API: value(readout=MIC, system=Candida albicans ATCC 10231) for record CCCCCCCCCCCC(=O)N[C@H](CC(C)C)C(=O)N[C@@H](CCCCN)C(=O)N[C@@H](CCCCN)C(=O)N[C@H](CC(C)C)C(=O)N[C@H](CC(C)C)C(=O)N[C@@H](CCCCN)C(=O)N[C@@H](CCCCN)C(=O)N[C@H](CC(C)C)C(=O)N[C@H](CC(C)C)C(=O)N[C@@H](CCCCN)C(=O)N[C@@H](CCCCN)C(=O)N[C@H](CC(C)C)C(N)=O [lipopeptide 22] (Lauroyl-[dL]KK[dL][dL]KK[dL][dL]KK[dL]-NH2)
100 µM

Try CCCCCCCCCCCC(=O)N[C@H](CC(C)C)C(=O)N[C@@H](CCCNC(=N)N)C(=O)N[C@@H](CCCNC(=N)N)C(=O)N[C@H](CC(C)C)C(=O)N[C@H](CC(C)C)C(=O)N[C@@H](CCCNC(=N)N)C(=O)N[C@@H](CCCNC(=N)N)C(=O)N[C@H](CC(C)C)C(=O)N[C@H](CC(C)C)C(=O)N[C@@H](CCCNC(=N)N)C(=O)N[C@@H](CCCNC(=N)N)C(=O)N[C@H](CC(C)C)C(N)=O [lipopeptide 25] (Lauroyl-[dL]RR[dL][dL]RR[dL][dL]RR[dL]-NH2) next.
100 µM

Then this compound: CCCCCCCCCCCC(=O)N[C@H](CC(C)C)C(=O)N[C@@H](CCCNC(=N)N)C(=O)N[C@@H](Cc1c[nH]cn1)C(=O)N[C@H](CC(C)C)C(=O)N[C@H](CC(C)C)C(=O)N[C@@H](CCCNC(=N)N)C(=O)N[C@@H](Cc1c[nH]cn1)C(=O)N[C@H](CC(C)C)C(=O)N[C@H](CC(C)C)C(=O)N[C@@H](CCCNC(=N)N)C(=O)N[C@@H](Cc1c[nH]cn1)C(=O)N[C@H](CC(C)C)C(N)=O [lipopeptide 27] (Lauroyl-[dL]RH[dL][dL]RH[dL][dL]RH[dL]-NH2)
>100 µM

Kindly review the next compound as well.
# returns recorded MIC (system: Candida albicans ATCC 10231) for CCCCCCCCCCCC(=O)N[C@H](CC(C)C)C(=O)N[C@@H](CCCCN)C(=O)N[C@@H](Cc1c[nH]cn1)C(=O)N[C@H](CC(C)C)C(=O)N[C@H](CC(C)C)C(=O)N[C@@H](CCCCN)C(=O)N[C@@H](Cc1c[nH]cn1)C(=O)N[C@H](CC(C)C)C(=O)N[C@H](CC(C)C)C(=O)N[C@@H](CCCCN)C(=O)N[C@@H](Cc1c[nH]cn1)C(=O)N[C@H](CC(C)C)C(N)=O [lipopeptide 28] (Lauroyl-[dL]KH[dL][dL]KH[dL][dL]KH[dL]-NH2)
>100 µM

---

# maps each entry to its Minimal inhibitory concentrations, S. aureus II ATCC 6538P
test system: Staphylococcus aureus ATCC 6538P; type: cell-based; details: ATCC 6538, pH 5.5
Non-standard residues stand in square brackets, D forms with d. Residues, ends and D or L forms follow the SMILES beside them. *: point of attachment. Lauroyl = CCCCCCCCCCCC(=O)*
Output spec: scalar in µM, unitless text.

Entry CCCCCCCCCCCC(=O)N[C@H](CC(C)C)C(=O)N[C@@H](CCCNC(=N)N)C(=O)N[C@@H](Cc1c[nH]cn1)C(=O)N[C@H](CC(C)C)C(=O)N[C@H](CC(C)C)C(=O)N[C@@H](CCCNC(=N)N)C(=O)N[C@@H](Cc1c[nH]cn1)C(=O)N[C@H](CC(C)C)C(=O)N[C@H](CC(C)C)C(=O)N[C@@H](CCCNC(=N)N)C(=O)N[C@@H](Cc1c[nH]cn1)C(=O)N[C@H](CC(C)C)C(N)=O [lipopeptide 27] (Lauroyl-[dL]RH[dL][dL]RH[dL][dL]RH[dL]-NH2) has what Minimal inhibitory concentrations, S. aureus II ATCC 6538P?
100

Switching to the query record.
What measured Minimal inhibitory concentrations, S. aureus II ATCC 6538P goes with CCCCCCCCCCCC(=O)N[C@H](CC(C)C)C(=O)N[C@@H](CCCNC(=N)N)C(=O)N[C@@H](CCCNC(=N)N)C(=O)N[C@H](CC(C)C)C(=O)N[C@H](CC(C)C)C(=O)N[C@@H](CCCNC(=N)N)C(=O)N[C@@H](CCCNC(=N)N)C(=O)N[C@H](CC(C)C)C(=O)N[C@H](CC(C)C)C(=O)N[C@@H](CCCNC(=N)N)C(=O)N[C@@H](CCCNC(=N)N)C(=O)N[C@H](CC(C)C)C(N)=O [lipopeptide 25] (Lauroyl-[dL]RR[dL][dL]RR[dL][dL]RR[dL]-NH2) ?
50
